experiment: Antimicrobial activity against Salmonella pullorum C7913 assessed as bacterial killing measured after 16 hrs incubation; format: functional, Salmonella enterica subsp. enterica serovar Pullorum; conditions: Salmonella enterica
property-label: MBC (µM)
Write it as a number; the unit µM goes unstated.

Some substances with recorded MBC:
Task: Please give measured MBC of the following entry: `H-GKLWLKGMKLWLKGGKLWLKG-NH2`
Output: 1

Task: Please give measured MBC of the following entry: `H-CKLWLKGGKLWLKGGKLWLKG-NH2`
Output: 2

Task: Please give measured MBC of the following entry: `H-GKLWLKGGKLWLKGAKLWLKG-NH2`
Output: 2

Next:
Task: Please give measured MBC of the following entry: `H-IKLWLKGGKLWLKGGKLWLKG-NH2`
Output: 2

Task: Please give measured MBC of the following entry: `H-GKLWLKGLKLWLKGGKLWLKG-NH2`
Output: 1
